All values here come from ChEMBL document CHEMBL3885861.

The reader will find reported TBIL values listed item by item below.
# Organism: Rattus norvegicus
# assay: Open TG-GATES - Regimen: Single
# Type: toxicity, organism-based, Sprague-Dawley
# Set-up: regimen Single, gender Male, age 6 weeks
# condition-set: in vivo, po, 100 mg/kg, 3 h, tissue Plasma, route gavage, dose level Low
Answer format: value, then unit.

> print(dat)
                        chemical.structure  property.measured  reported.value
1  Cc1nnc2n1-c1ccc(Cl)cc1C(c1ccccc1Cl)=NC2               TBIL     0.062 mg/dL

For the molecule `CN/C(=N/CCSCc1nc[nH]c1C)NC#N` , what TBIL is on record?
0.1 mg/dL

For the molecule `COC(=O)C1=C(C)NC(C)=C(C(=O)OC)C1c1ccccc1[N+](=O)[O-]` , what TBIL is on record?
0.042 mg/dL
